Sourced from PubChem BioAssay AID330

Test system: P388 leukemia ip, CD2F1 mice, survival T/C
Experiment: NCI In Vivo Anticancer Drug Screen. Data for tumor model P388 Leukemia (intraperitoneal) in CD2F1 (CDF1) mice
Settings: endpoint: median survival time; dose: 100.0 mg/kg/injection; schedule: Q01DX005 (ip); vehicle: Klucel (hydroxypropylcellulose) (HPC); higher = longer survival
Protocol: The antitumor activity of compounds was measured in mice bearing transplantable tumors. Survival or tumor size were measured and the results are expressed as the measurement made in the treated group (T) divided by the measurement made in the vehicle treated control group (C). The tumor model used in this assay is P388 Leukemia (intraperitoneal) in CD2F1 (CDF1) mice
Toxic doses and inconclusive results are not listed.
measured_property: T/C

Request - read-out T/C | tested on P388 leukemia ip, CD2F1 mice, survival T/C | compound "Clc1cccc(Cl)c1C(Nc1nccs1)Nc1nccs1"
103 % of control

Request - read-out T/C | tested on P388 leukemia ip, CD2F1 mice, survival T/C | compound CCCCC(NC(=O)C(Cl)Cl)C(=O)O (stereo unspecified)
98 % of control

Request - read-out T/C | tested on P388 leukemia ip, CD2F1 mice, survival T/C | compound "CCc1nc(N)nc(N)c1-c1ccc(NCCc2ccccc2)c(N)c1"
96 % of control

Request - read-out T/C | tested on P388 leukemia ip, CD2F1 mice, survival T/C | compound C=C(C)COC(=O)C1C2CC(C3OC23)C1C(=O)OCC(=C)C (stereo unspecified)
104 % of control

Request - read-out T/C | tested on P388 leukemia ip, CD2F1 mice, survival T/C | compound "[B-]([C+]1CCCCC1)N1C=CC=CC1"
98 % of control

Request - read-out T/C | tested on P388 leukemia ip, CD2F1 mice, survival T/C | compound "CC1(C)CC(=O)C(C(c2ccc3c(c2)OCO3)C2C(=O)CC(C)(C)CC2=O)C(=O)C1"
101 % of control

====

Tested on: P388 leukemia ip, CD2F1 mice, survival T/C
Experiment: NCI In Vivo Anticancer Drug Screen. Data for tumor model P388 Leukemia (intraperitoneal) in CD2F1 (CDF1) mice
Conditions: endpoint: median survival time; dose: 7.5 mg/kg/injection; schedule: Q01DX005 (ip); vehicle: Klucel (hydroxypropylcellulose) (HPC); higher = longer survival
Inconclusive results and toxic doses are left out.
Please provide measured T/C for the entries that follow.

What T/C value was documented for this molecule, "CC1(C)N=C(N)N=C(N)N1c1cccc(CSc2ccccc2)c1" ?
98 % of control

What T/C value was documented for this molecule, "COC1=CC(=O)C(C#CCOCc2ccccc2)=CC1=O" ?
100 % of control

What T/C value was documented for this molecule, "CC1(C)N=C(N)N=C(N)N1c1cc(C(F)(F)F)cc(C(F)(F)F)c1" ?
99 % of control

What T/C value was documented for this molecule, "Clc1ccc2nc3ccccc3c(SCCCCCCSc3c4ccccc4nc4ccc(Cl)cc34)c2c1" ?
103 % of control

====

Tested on: P388 leukemia ip, CD2F1 mice, survival T/C
Assay: NCI In Vivo Anticancer Drug Screen. Data for tumor model P388 Leukemia (intraperitoneal) in CD2F1 (CDF1) mice
Conditions: endpoint: median survival time; dose: 400.0 mg/kg/injection; schedule: Q01DX001 (ip); vehicle: saline with Tween-80; higher = longer survival
Toxic doses and inconclusive results are not listed.
measured_property: T/C

What T/C value was documented for this molecule, "COc1ccc(/C=N/Nc2nnc3c4ccccc4n(C)c3n2)cc1" ?
107 % of control

What T/C value was documented for this molecule, C=C1COC(=O)[C@@]12CC[C@@]1(C)[C@@H](CC[C@@H]3[C@@H]1CC[C@]1(C)C([C@H](C)CCCC(C)C)CC[C@@H]31)C2 (some centres undefined) ?
91 % of control

What T/C value was documented for this molecule, "CNC(=O)NS(=O)(=O)c1cnccc1Cl" ?
97 % of control

What T/C value was documented for this molecule, "O=C(O)CSCc1nc2ccccc2[nH]1" ?
100 % of control

What T/C value was documented for this molecule, "CCOC(=O)C(C(=O)C(F)(F)C(F)(F)C(F)(F)C(=O)C(C(=O)OCC)=P(c1ccccc1)(c1ccccc1)c1ccccc1)=P(c1ccccc1)(c1ccccc1)c1ccccc1" ?
108 % of control

What T/C value was documented for this molecule, "COc1ccc2c(c1)Oc1c(Cl)c3c(c(Cl)c1=N2)Oc1cc(OC)ccc1N=3" ?
115 % of control

What T/C value was documented for this molecule, "O=C(CCCCCCCCC(=O)Nc1ccccc1)Nc1ccccc1" ?
108 % of control

What T/C value was documented for this molecule, "COc1ccc(N2C(=O)CCC2=O)cc1" ?
95 % of control

What T/C value was documented for this molecule, "O=C(/C=C/c1cccs1)c1ccc(Nc2ccnc3cc(Cl)ccc23)cc1" ?
94 % of control

What T/C value was documented for this molecule, "CC(C)(C)c1ccc(SS(=O)(=O)c2ccc(C(C)(C)C)cc2)cc1" ?
97 % of control

What T/C value was documented for this molecule, "COC(=O)c1cn(C(C)=O)c(C)c1C(=O)OC" ?
104 % of control

What T/C value was documented for this molecule, "CCOC(=O)c1[nH]ncc1[N+](=O)[O-]" ?
102 % of control

What T/C value was documented for this molecule, "O=C(O)c1nn(Cc2ccc(Br)cc2Br)c2ccccc12" ?
114 % of control

What T/C value was documented for this molecule, "CCOC(=O)C1=C(N)CCC2(C1)c1ccccc1-c1ccccc12" ?
93 % of control

====

Test system: P388 leukemia ip, CD2F1 mice, survival T/C
Experiment: NCI In Vivo Anticancer Drug Screen. Data for tumor model P388 Leukemia (intraperitoneal) in CD2F1 (CDF1) mice
Details: endpoint: median survival time; dose: 200.0 mg/kg/injection; schedule: Q01DX009 (ip); vehicle: Klucel (hydroxypropylcellulose) (HPC); higher = longer survival
Inconclusive results and toxic doses are left out.
measured_property: T/C

What T/C value was documented for this compound, "O=S(=O)(Nc1cc2c3ccccc3ccc2c2ccccc12)c1ccccc1" ?
100 % of control

What T/C value was documented for this compound, "Clc1nnc(C(Cl)Cl)o1" ?
99 % of control

What T/C value was documented for this compound, "O=C(NC(=O)C(F)(F)C(F)(F)F)Nc1cccc(F)c1" ?
100 % of control

What T/C value was documented for this compound, CCOC(=O)C1=C(C)NC(=O)NC1c1ccccc1 (configuration not stated) ?
113 % of control

What T/C value was documented for this compound, COC(=O)C(Cc1ccccc1)NC(=O)C(Cc1c[nH]c2ccccc12)NC(=O)OC(C)(C)C (configuration not stated) ?
108 % of control

What T/C value was documented for this compound, "CN(CCN(C)C(=S)Cl)C(=S)Cl" ?
96 % of control

What T/C value was documented for this compound, "N#Cc1ccc(N2C(=O)c3ccc(C(O)(C(F)(F)F)C(F)(F)F)cc3C2=O)cc1C#N" ?
99 % of control

What T/C value was documented for this compound, CC1CC(c2ccccc2)C(c2ccc(Cl)cc2)C(=O)O1 (configuration not stated) ?
100 % of control

What T/C value was documented for this compound, "O=[N+]([O-])c1ccc(N/N=C/c2ccnc3ccccc23)cc1" ?
86 % of control

What T/C value was documented for this compound, "Cc1cc(NC(=S)SCc2ccc3c(c2)OCO3)ccc1Br" ?
107 % of control

What T/C value was documented for this compound, "CCN1c2ccccc2Sc2cc(C=O)ccc21" ?
101 % of control

What T/C value was documented for this compound, "N#C/C(=C/c1ccco1)c1ccc(Cl)cc1" ?
92 % of control

====

Test system: P388 leukemia ip, CD2F1 mice, survival T/C
Assay: NCI In Vivo Anticancer Drug Screen. Data for tumor model P388 Leukemia (intraperitoneal) in CD2F1 (CDF1) mice
Settings: endpoint: median survival time; dose: 200.0 mg/kg/injection; schedule: Q04DX003 (ip); vehicle: saline with Tween-80
Inconclusive results and toxic doses are left out. How the source made its calls: active means survival T/C of 150% or more; inactive means T/C below 125% in these data.
Field 'call' accepts label 1 for active, label 0 for inactive

Query: recorded result category for "O=[N+]([O-])c1ccc(NCCO)c([N+](=O)[O-])c1" in this test
label 0

Query: recorded result category for "CCOc1ccc(/C=N/Nc2ccc([N+](=O)[O-])cc2)cc1OC" in this test
label 0

Query: recorded result category for "Clc1ccc(CNc2ncnc3[nH]ncc23)c(Cl)c1" in this test
label 0

Query: recorded result category for "c1ccc(NC2=NCCO2)nc1" in this test
label 0

Query: recorded result category for "CS/C(=N\N=C(/C)c1ccccn1)N1CCN(c2ccccn2)CC1" in this test
label 0

Query: recorded result category for "CCCCCn1c(Cl)c(/C=N\Nc2cccc([N+](=O)[O-])c2)c2ccccc21" in this test
label 0

Query: recorded result category for "CC1(C)N=C(N)N=C(N)N1c1ccc(OCCOc2ccc(S(=O)(=O)F)cc2)c(Cl)c1" in this test
label 1

Query: recorded result category for CC(C)(C)C(O)c1cccnc1 (configuration not stated) in this test
label 0

Query: recorded result category for CC1C=CC(C)N(c2nnnn2C)N1c1nnnn1C (configuration not stated) in this test
label 0

Query: recorded result category for CC1CCC(n2cnc3c(=S)nc[nH]c32)O1 (configuration not stated) in this test
label 0

Query: recorded result category for CC(=O)C1=C(c2ccccc2)NC(=O)NC1c1ccco1 (configuration not stated) in this test
label 0

Query: recorded result category for "CC(=O)n1ccc(=O)[nH]c1=O" in this test
label 0
